Listed next: entries and their corresponding IC50.
Test system: L1210
test-description: Cytotoxicity against murine leukemia L1210 cells
Type: functional, cell-based, Mus musculus
experimental-context: Mus musculus, L1210; read-out: IC50

- molecule: "C=C1[C@@H](O)CC[C@@]2(C)[C@@H](OC(C)=O)[C@H](OC(C)=O)C3=C(C)C(=O)C[C@@H]([C@@H](O)[C@H]12)C3(C)C"
  IC50: "> 10 µg/mL"
- molecule: "C=C1[C@@H](OC(=O)/C=C/c2ccccc2)CC[C@]2(C)[C@@H]1C[C@@H]1C[C@H](OC(C)=O)C(C)=C([C@@H](OC(C)=O)[C@@H]2OC(C)=O)C1(C)C"
  IC50: "9.5 µg/mL"
- molecule: "C=C1[C@@H](O)CC[C@@]2(C)[C@@H](OC(C)=O)[C@H](OC(C)=O)C3=C(C)C(=O)C[C@@H]([C@@H](OC(C)=O)[C@H]12)C3(C)C"
  IC50: "8.9 µg/mL"
- molecule: "C=C1[C@@H](OC(=O)CC(c2ccccc2)N(C)C)CC[C@@]2(C)[C@@H](OC(C)=O)[C@H](OC(C)=O)C3=C(C)C(=O)C[C@@](O)([C@@H](OC(C)=O)[C@H]12)C3(C)C (stereo not given in full)"
  IC50: "2.7 µg/mL"
- molecule: "C=C1[C@@H](O)CC[C@@]2(C)[C@@H](OC(C)=O)[C@H](OC(C)=O)C3=C(C)C(=O)C[C@@](O)([C@@H](OC(C)=O)[C@H]12)C3(C)C"
  IC50: "6.2 µg/mL"
- molecule: "C=C1[C@@H](O)C[C@H](OC(C)=O)[C@@]2(C)[C@@H](OC(C)=O)[C@H](OC(C)=O)C3=C(C)[C@@H](OC(C)=O)C[C@@H]([C@@H](OC(C)=O)[C@H]12)C3(C)C"
  IC50: "> 10 µg/mL"
- molecule: "CC(=O)O[C@@]12CO[C@@H]1C[C@@H](O)[C@@]1(C)C(=O)[C@H](O)C3=C(C)[C@@H](OC(=O)[C@H](O)C(NC(=O)c4ccccc4)c4ccccc4)C[C@@](O)([C@@H](OC(=O)c4ccccc4)[C@H]21)C3(C)C (stereo not given in full)"
  IC50: "0.71 µg/mL"
- molecule: "C=C1[C@@H](OC(=O)/C=C/c2ccccc2)CC[C@@]2(C)[C@@H](O)[C@H](OC(C)=O)C3=C(C)C(=O)C[C@@H]([C@@H](OC(C)=O)[C@H]12)C3(C)C"
  IC50: "1.1 µg/mL"
- molecule: "C=C1[C@@H](OC(=O)CC(c2ccccc2)N(C)C)CC[C@@]2(C)[C@@H](OC(C)=O)[C@H](OC(C)=O)[C@@]34[C@H](C)C(=O)C[C@@H]([C@@H](OC(C)=O)C132)C4(C)C (stereo not given in full)"
  IC50: "> 10 µg/mL"
- molecule: "C=C1[C@@H](O)C[C@H](OC(C)=O)[C@@]2(COC(C)=O)[C@@H](OC(C)=O)[C@H](OC(C)=O)[C@]3(O)[C@@]4(C)CO[C@]3(C)C(=O)C[C@H]4[C@@H](OC(C)=O)[C@H]12"
  IC50: "> 10 µg/mL"
